// data source = patent US20210100760A1

target_or_system: UniProtKB Q4U2R8
test_method_notes: OAT1 substrate determination in HEK293 cells
Type: in vitro ADME
condition_parameters: human, HEK293 cells expressing OAT1, pH 7.4; read-out: Recovery, OAT1
experimental_endpoint: recovery at 10 μM (%)
The response must be a number in % with no trailing unit.

Lab book: recovery at 10 μM of NS(=O)(=O)c1cc(Cl)c(Cl)c(S(N)(=O)=O)c1 [Dichlorphenamide, 4,5-dichloro-1,3-benzenedisulfonamide] noted as 98.5

====

target_or_system: OAT1 (Homo sapiens)
Sequence (Q4U2R8 1-563): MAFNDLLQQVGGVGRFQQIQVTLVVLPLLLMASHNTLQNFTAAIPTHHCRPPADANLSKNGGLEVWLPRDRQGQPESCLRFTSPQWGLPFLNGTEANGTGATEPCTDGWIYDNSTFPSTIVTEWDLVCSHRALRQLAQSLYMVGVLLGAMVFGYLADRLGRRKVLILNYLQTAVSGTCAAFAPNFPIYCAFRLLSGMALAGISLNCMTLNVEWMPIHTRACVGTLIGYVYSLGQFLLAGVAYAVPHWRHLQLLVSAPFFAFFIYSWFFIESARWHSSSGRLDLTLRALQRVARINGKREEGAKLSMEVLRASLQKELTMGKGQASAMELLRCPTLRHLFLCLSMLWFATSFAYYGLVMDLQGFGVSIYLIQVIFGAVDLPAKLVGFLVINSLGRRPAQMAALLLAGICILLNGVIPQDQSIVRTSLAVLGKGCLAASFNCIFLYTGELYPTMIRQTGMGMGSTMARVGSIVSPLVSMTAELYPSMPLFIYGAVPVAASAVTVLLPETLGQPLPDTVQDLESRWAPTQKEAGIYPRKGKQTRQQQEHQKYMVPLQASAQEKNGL
test_method_notes: OAT1 substrate determination in HEK293 cells
Assay type: in vitro ADME
condition_parameters: human, control HEK293 cells (transfected with vector only), pH 7.4; read-out: Recovery, Control
experimental_endpoint: recovery at 10 μM (%)
Form entry: value (%) — number only.

Given item NS(=O)(=O)c1cc(Cl)c(Cl)c(S(N)(=O)=O)c1 [Dichlorphenamide, 4,5-dichloro-1,3-benzenedisulfonamide] , the value recorded as its recovery at 10 μM is 95.3

====

target_or_system: OAT3 (Homo sapiens)
test_method_notes: OAT3 positive-control inhibition, [3H]-Estrone-3-sulfate probe substrate uptake in HEK293 cells
Type: in vitro ADME
condition_parameters: human, HEK293 cells expressing OAT3 and control cells, pH 7.4, probe [3H]-Estrone-3-sulfate (50 nM); [3H]-Estrone-3-sulfate (50 nM) probe, inhibitor 100 μM, relative to solvent control; read-out: Percent of control
experimental_endpoint: activity at 100 μM (%)
Give the number; % is assumed, so skip it.

Readout activity at 100 μM for CCCN(CCC)S(=O)(=O)c1ccc(C(=O)O)cc1 [Probenecid] , test system OAT3 (Homo sapiens), was 3.2

====

target_or_system: OAT3 (Homo sapiens, UniProt Q8TCC7)
Sequence (Q8TCC7 whole entry): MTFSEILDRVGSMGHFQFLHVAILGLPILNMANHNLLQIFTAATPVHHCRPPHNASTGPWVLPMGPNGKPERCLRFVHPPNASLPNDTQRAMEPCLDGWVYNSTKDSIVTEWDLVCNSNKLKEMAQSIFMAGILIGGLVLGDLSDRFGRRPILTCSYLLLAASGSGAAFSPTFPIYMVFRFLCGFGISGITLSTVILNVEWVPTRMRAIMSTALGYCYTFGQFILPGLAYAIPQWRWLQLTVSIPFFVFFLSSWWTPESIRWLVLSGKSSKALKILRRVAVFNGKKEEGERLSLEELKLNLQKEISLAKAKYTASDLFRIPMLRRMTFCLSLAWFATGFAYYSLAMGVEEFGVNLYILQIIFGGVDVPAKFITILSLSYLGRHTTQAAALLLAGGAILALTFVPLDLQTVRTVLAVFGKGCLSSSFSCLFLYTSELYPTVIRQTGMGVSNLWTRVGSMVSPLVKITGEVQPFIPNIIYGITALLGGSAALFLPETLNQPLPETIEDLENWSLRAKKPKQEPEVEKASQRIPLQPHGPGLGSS
test_method_notes: OAT3 substrate determination in HEK293 cells
Type: in vitro ADME
condition_parameters: human, HEK293 cells expressing OAT3, pH 7.4; read-out: Recovery, OAT3
experimental_endpoint: recovery at 10 μM (%)
Number in %, nothing else.

Record summary for NS(=O)(=O)c1cc(Cl)c(Cl)c(S(N)(=O)=O)c1 [Dichlorphenamide, 4,5-dichloro-1,3-benzenedisulfonamide] : reported recovery at 10 μM = 77.9
